Tested on: platelet aggregation (AA)
Test: Inhibitory action against platelet aggregation, inducer arachidonic acid (AA)
Format: cell-based
Conditions: Oryctolagus cuniculus, Platelet, Table 1; AA 150 μM; rabbit PRP
Each entry below carries its reported IC50.

molecule	IC50 / µg/mL
CC(=O)OC1CCC(OC2CCC(OC3C=CC(=O)C(C)O3)C(C)O2)C(C)O1 (centres unmarked) [SEN-366-A1]	1.2
CC(=O)OC1CCC(OC2CCC(OC3CCC(=O)C(C)O3)C(C)O2)C(C)O1 (centres unmarked) [SEN-366-A2]	6
CC1OC(OC2CCC(OC3CCC(OC(=O)c4ccccc4)OC3C)OC2C)CCC1=O (centres unmarked) [SEN-366-B2]	1.6
CC1OC(OC2CCC(OC3CCC(O)OC3C)OC2C)C(O)CC1=O (centres unmarked) [SEN-366-P]	25
CC1OC(OC2CCC(OC3CCC(OC(=O)c4ccccc4)OC3C)OC2C)C=CC1=O (centres unmarked) [SEN-366-B1]	0.32

###

Test system: platelet aggregation (AA)
Assay: Inhibitory action against platelet aggregation, inducer arachidonic acid (AA)
Type: cell-based
Conditions: Oryctolagus cuniculus, Platelet, Table 2; AA 150 μM; rabbit PRP
Each entry below carries its reported IC50.
measurement name: IC50 (µg/mL)

compound	tested target	display unit	reading
COC1CCC(OC2CCC(OC3C=CC(=O)C(C)O3)C(C)O2)C(C)O1 (stereo not shown)	platelet aggregation (AA)	µg/mL	29
CCOC1CCC(OC2CCC(OC3CCC(=O)C(C)O3)C(C)O2)C(C)O1 (stereo not shown) [SEN-366-E2]	platelet aggregation (AA)	µg/mL	52
COC1CCC(OC2CCC(OC3CCC(=O)C(C)O3)C(C)O2)C(C)O1 (stereo not shown)	platelet aggregation (AA)	µg/mL	42
CC1OC(OC2CCC(OC3CCC(OC(=O)c4ccc(Cl)cc4)OC3C)OC2C)C=CC1=O (stereo not shown)	platelet aggregation (AA)	µg/mL	1.1
CC1OC(OC2CCC(OC3CCC(OC(=O)c4ccc(Cl)cc4)OC3C)OC2C)CCC1=O (stereo not shown)	platelet aggregation (AA)	µg/mL	6.2
CC1OC(OC2CCC(OC3CCC(=O)OC3C)OC2C)C=CC1=O (stereo not shown)	platelet aggregation (AA)	µg/mL	27
CCOC1CCC(OC2CCC(OC3C=CC(=O)C(C)O3)C(C)O2)C(C)O1 (stereo not shown) [SEN-366-E1]	platelet aggregation (AA)	µg/mL	10.3

###

System: platelet aggregation (collagen)
Test: Inhibitory action against platelet aggregation, inducer collagen
Assay type: cell-based
Conditions: Oryctolagus cuniculus, Platelet, Table 1; collagen 10 μg/ml; rabbit PRP
Protocol: Inhibitory Action against Platelet Aggregation: (1) Materials and Method: The sample is tested after dissolved in dimethyl sulfoxide. The preparation is conducted so as to make the final concentration of the solvent 1%. Dimethyl sulfoxide of the same concentration is used as a control. […] A measuring apparatus for platelet aggregation is used and the changes in absorbancy by the aggregation with an elapse of time are recorded. […]

compound	IC50
CC1OC(OC2CCC(OC3CCC(O)OC3C)OC2C)C(O)CC1=O (centres unmarked)	1.6 mg/L
CCCC(=O)OC1CCC(OC2CCC(OC3C=CC(=O)C(C)O3)C(C)O2)C(C)O1 (centres unmarked)	0.17 mg/L
CC(=O)OC1CCC(OC2CCC(OC3CCC(=O)C(C)O3)C(C)O2)C(C)O1 (centres unmarked)	0.54 mg/L
CC1OC(OC2CCC(OC3CCC(OC(=O)c4ccccc4)OC3C)OC2C)CCC1=O (centres unmarked)	1.7 mg/L
CC1OC(OC2CCC(OC3CCC(OC(=O)c4ccccc4)OC3C)OC2C)C=CC1=O (centres unmarked)	0.16 mg/L
